Values compiled from ChEMBL document CHEMBL5518215.

Tested on: Staphylococcus aureus
Assay: Antimicrobial activity against Methicillin-resistant Staphylococcus aureus 43300 assessed as bacterial killing measured after 16 hrs incubation
Format: functional
quantity kind: MBC (µM)

INSERT INTO assay_data (substance, quantity_kind, bound_operator, value_observed) VALUES
  ('H-GKLWLKGGKLWLKAGKLWLKG-NH2', 'MBC', '=', 4),
  ('H-GKLWLKAGKLWLKGGKLWLKG-NH2', 'MBC', '=', 4),
  ('H-GKLWLKGCKLWLKGGKLWLKG-NH2', 'MBC', '=', 32),
  ('H-AKLWLKAAKLWLKAAKLWLKA-NH2', 'MBC', '=', 4),
  ('H-GKLWLKGIKLWLKGGKLWLKG-NH2', 'MBC', '=', 2),
  ('H-GKLWLKGFKLWLKGGKLWLKG-NH2', 'MBC', '=', 8),
  ('H-CKLWLKGGKLWLKGGKLWLKG-NH2', 'MBC', '>', 32),
  ('H-AKLWLKGGKLWLKGGKLWLKG-NH2', 'MBC', '>', 32),
  ('H-GKLWLKGGKLWLKGAKLWLKG-NH2', 'MBC', '=', 4),
  ('H-MKLWLKGGKLWLKGGKLWLKG-NH2', 'MBC', '>', 32),
  ('H-GKLWLKGVKLWLKGGKLWLKG-NH2', 'MBC', '=', 2),
  ('H-GKLWLKGGKLWLKGGKLWLKA-NH2', 'MBC', '=', 8),
  ('H-GKLWLKGWKLWLKGGKLWLKG-NH2', 'MBC', '=', 4),
  ('H-GKLWLKGAKLWLKGGKLWLKG-NH2', 'MBC', '=', 8);
